test_description: Experimental LogD (partition coefficient)
experimental_conditions: not stated, Partition Coeff LogD

| molecule | logD |
| --- | --- |
| CC(=O)N[C@@H](CCCCN=[N+]=[N-])C(=O)NCCC(=O)N[C@H](C)C(=O)N[C@H](C(=O)N[C@@H](Cc1ccccc1)C(=O)N[C@]1(C)CCCCCCC=CCCC[C@@](C)(C(=O)N[C@@H](CO)C(=O)N[C@@H](C)C(=O)N[C@@H](C)C(N)=O)NC(=O)[C@H](CC2CCC2)NC(=O)[C@H](CCC(N)=O)NC(=O)[C@H](C)NC(=O)[C@H](Cc2c[nH]c3ccccc23)NC(=O)[C@H](Cc2ccc(O)cc2)NC(=O)[C@H](CCC(=O)O)NC1=O)[C@@H](C)O | 2.72 |

---

test_description: physchem
Positions of bridges follow the written chain, without caps; N, C: chain ends. Non-standard residues stand in square brackets, D forms with d. Residues, ends and D or L forms follow the SMILES beside them. R8 = C=CCCCCCC[C@@](C)(N)C(=O)O; Cba = N[C@@H](CC1CCC1)C(=O)O; S5 = C=CCCC[C@](C)(N)C(=O)O
readout_type: EPSA (A^2)

| compound | readout_type | result_value |
| --- | --- | --- |
| CC(=O)N[C@@H](CCCCN=[N+]=[N-])C(=O)NCCC(=O)N(C)[C@@H](CC(C)C)C(=O)N[C@H](C(=O)N[C@@H](Cc1ccccc1)C(=O)N[C@]1(C)CCCCCCC=CCCC[C@@](C)(C(=O)N[C@@H](CO)C(=O)N[C@@H](C)C(=O)N[C@@H](C)C(N)=O)NC(=O)[C@H](CC2CCC2)NC(=O)[C@H](CCC(N)=O)NC(=O)[C@H](C)NC(=O)[C@H](Cc2c[nH]c3ccccc23)NC(=O)[C@H](Cc2ccc(O)cc2)NC(=O)[C@H](CCC(=O)O)NC1=O)[C@@H](C)O [MP-189] | EPSA | 226 |
| CC(=O)N[C@@H](CC(C)C)C(=O)N[C@H](C(=O)N[C@@H](Cc1ccccc1)C(=O)N[C@]1(C)CCCCCCC=CCCC[C@@](C)(C(=O)N[C@@H](CCCNC(=N)N)C(=O)N[C@@H](C)C(=O)N[C@@H](C)C(N)=O)NC(=O)[C@H](CC2CCC2)NC(=O)[C@H](CC(C)C)NC(=O)[C@H](CCC(N)=O)NC(=O)[C@H](Cc2c[nH]c3ccccc23)NC(=O)[C@H](Cc2ccc(O)cc2)NC(=O)[C@H](CCC(=O)O)NC1=O)[C@@H](C)O [MP-196] (Ac-LTF[R8]EYWQL[Cba][S5]RAA-NH2; staple 4-11) | EPSA | 214 |

---

Tested on: Jump-In T-REx CHO-K1 BLA cells
test_description: cells
Assay type: cell-based
experimental_conditions: 0% FBS 4Hr; read-out: TETCHO: Counterscreen EC50
pEC50: −log10 of the molar value. Positions of bridges follow the written chain, without caps; N, C: chain ends. Non-standard residues stand in square brackets, D forms with d. Residues, ends and D or L forms follow the SMILES beside them. R8 = C=CCCCCCC[C@@](C)(N)C(=O)O; S5 = C=CCCC[C@](C)(N)C(=O)O

| compound | pEC50 |
| --- | --- |
| CC(=O)N[C@H](C(=O)N[C@@H](CO)C(=O)N[C@@H](Cc1ccccc1)C(=O)N[C@]1(C)CCCCCCC=CCCC[C@@](C)(C(N)=O)NC(=O)[C@H](CC(C)C)NC(=O)[C@H](CC(C)C)NC(=O)[C@H](C)NC(=O)[C@H](Cc2c[nH]c3ccccc23)NC(=O)[C@H](Cc2ccc(O)cc2)NC(=O)[C@H](Cc2c[nH]cn2)NC1=O)[C@@H](C)O [MP-138] (Ac-TSF[R8]HYWALL[S5]-NH2; staple 4-11) | < 4.30 |
| CC(=O)N[C@H](C(=O)N[C@@H](CO)C(=O)N[C@@H](Cc1ccccc1)C(=O)N[C@]1(C)CCCCCCC=CCCC[C@@](C)(C(=O)N[C@@H](CCC(=O)O)C(=O)N[C@@H](CC(N)=O)C(=O)N[C@@H](Cc2ccccc2)C(N)=O)NC(=O)[C@H](CC(C)C)NC(=O)[C@H](CC(C)C)NC(=O)[C@H](C)NC(=O)[C@H](Cc2c[nH]c3ccccc23)NC(=O)[C@H](Cc2ccc(O)cc2)NC(=O)[C@H](CCC(=O)O)NC1=O)[C@@H](C)O [MP-1169] | < 4.30 |

---

test_description: physchem
Positions of bridges follow the written chain, without caps; N, C: chain ends. Non-standard residues stand in square brackets, D forms with d. Residues, ends and D or L forms follow the SMILES beside them. Lys(N3) = [N-]=[N+]=NCCCC[C@H](N)C(=O)O; R8 = C=CCCCCCC[C@@](C)(N)C(=O)O; Cba = N[C@@H](CC1CCC1)C(=O)O; S5 = C=CCCC[C@](C)(N)C(=O)O; βAla = NCCC(=O)O; Sar = CNCC(=O)O
The entries below come with measured EPSA values attached.

| molecule | EPSA (A^2) |
| --- | --- |
| CC(C)C[C@@H]1NC(=O)[C@H](C)NC(=O)[C@H](Cc2c[nH]c3ccccc23)NC(=O)[C@H](Cc2ccc(O)cc2)NC(=O)[C@H](CCC(=O)O)NC(=O)[C@](C)(NC(=O)[C@H](Cc2ccccc2)NC(=O)[C@H](CO)NC(=O)[C@@H](NC(=O)[C@H](CO)NC(=O)[C@@H](N)CCCCN=[N+]=[N-])[C@@H](C)O)CCCCCCC=CCCC[C@@](C)(C(N)=O)NC(=O)[C@H](CC(C)C)NC1=O | 235 |
| CC(=O)N[C@@H](CCCCN=[N+]=[N-])C(=O)NCCC(=O)N[C@@H](CC(C)C)C(=O)N[C@H](C(=O)N[C@@H](Cc1ccccc1)C(=O)N[C@]1(C)CCCCCCC=CCCC[C@@](C)(C(=O)N[C@@H](CO)C(=O)N[C@@H](C)C(=O)N[C@@H](C)C(N)=O)NC(=O)[C@H](CC2CCC2)NC(=O)[C@H](CCC(N)=O)NC(=O)[C@H](C)NC(=O)[C@H](Cc2c[nH]c3ccccc23)NC(=O)[C@H](Cc2ccc(O)cc2)NC(=O)[C@H](CCC(=O)O)NC1=O)C(C)C [MP-258] (Ac-[Lys(N3)][βAla]LVF[R8]EYWAQ[Cba][S5]SAA-NH2; staple 6-13) | 213 |
| CC(=O)N[C@@H](CCCCN=[N+]=[N-])C(=O)NCCC(=O)N[C@@H](CC(C)C)C(=O)N[C@H](C(=O)N[C@@H](Cc1ccccc1)C(=O)N[C@]1(C)CCCCCCC=CCCC[C@@](C)(C(=O)N[C@@H](CO)C(=O)N[C@@H](C)C(=O)N[C@@H](C)C(N)=O)NC(=O)[C@H](CC2CCC2)NC(=O)[C@H](CCC(N)=O)NC(=O)CN(C)C(=O)[C@H](Cc2c[nH]c3ccccc23)NC(=O)[C@H](Cc2ccc(O)cc2)NC(=O)[C@H](CCC(=O)O)NC1=O)[C@@H](C)O [MP-351] (Ac-[Lys(N3)][βAla]LTF[R8]EYW[Sar]Q[Cba][S5]SAA-NH2; staple 6-13) | 193 |
| CC(=O)N[C@@H](CCCCN=[N+]=[N-])C(=O)NCCC(=O)N[C@@H](CC(C)C)C(=O)N[C@H](C(=O)N[C@@H](C)C(=O)N[C@]1(C)CCCCCCC=CCCC[C@@](C)(C(=O)N[C@@H](CO)C(=O)N[C@@H](C)C(=O)N[C@@H](C)C(N)=O)NC(=O)[C@H](CC2CCC2)NC(=O)[C@H](CCC(N)=O)NC(=O)[C@H](C)NC(=O)[C@H](Cc2c[nH]c3ccccc23)NC(=O)[C@H](Cc2ccc(O)cc2)NC(=O)[C@H](CCC(=O)O)NC1=O)[C@@H](C)O [MP-892, AZIDE-ATSP-7041 (F3A)] | 201 |

---

test_description: physchem
Positions of bridges follow the written chain, without caps; N, C: chain ends. Non-standard residues stand in square brackets, D forms with d. Residues, ends and D or L forms follow the SMILES beside them. Lys(N3) = [N-]=[N+]=NCCCC[C@H](N)C(=O)O; R8 = C=CCCCCCC[C@@](C)(N)C(=O)O; Cba = N[C@@H](CC1CCC1)C(=O)O; S5 = C=CCCC[C@](C)(N)C(=O)O; βAla = NCCC(=O)O; Sar = CNCC(=O)O
readout_type: EPSA (A^2)

| compound | readout_type | units_symbol | result_value |
| --- | --- | --- | --- |
| CC(=O)N[C@@H](CCCCN=[N+]=[N-])C(=O)NCCC(=O)N[C@@H](CC(C)C)C(=O)N[C@H](C(=O)N[C@@H](Cc1ccccc1)C(=O)N[C@]1(C)CCCCCCC=CCCC[C@@](C)(C(N)=O)NC(=O)[C@H](CC2CCC2)NC(=O)[C@H](CCC(N)=O)NC(=O)[C@H](C)NC(=O)[C@H](Cc2c[nH]c3ccccc23)NC(=O)[C@H](Cc2ccc(O)cc2)NC(=O)[C@H](CCC(=O)O)NC1=O)[C@@H](C)O [MP-326] (Ac-[Lys(N3)][βAla]LTF[R8]EYWAQ[Cba][S5]-NH2; staple 6-13) | EPSA | A^2 | 222 |
| CC(=O)N[C@@H](CCCCN=[N+]=[N-])C(=O)NCCC(=O)N[C@@H](CC(C)C)C(=O)N[C@H](C(=O)N[C@@H](Cc1ccccc1)C(=O)N[C@]1(C)CCCCCCC=CCCC[C@@](C)(C(=O)N[C@@H](CO)C(=O)N[C@@H](C)C(=O)N[C@@H](C)C(N)=O)NC(=O)[C@H](CC2CCC2)NC(=O)[C@@H](C)NC(=O)[C@H](C)NC(=O)[C@H](Cc2c[nH]c3ccccc23)NC(=O)[C@H](Cc2ccc(O)cc2)NC(=O)[C@H](CCC(=O)O)NC1=O)[C@@H](C)O [MP-474] (Ac-[Lys(N3)][βAla]LTF[R8]EYWA[dA][Cba][S5]SAA-NH2; staple 6-13) | EPSA | A^2 | 222 |
| CC(=O)N[C@@H](CC(C)C)C(=O)N[C@H](C(=O)N[C@@H](Cc1ccccc1)C(=O)NC(C)(C)C(=O)N[C@@H](CCC(=O)O)C(=O)N[C@@H](Cc1ccc(O)cc1)C(=O)N[C@@H](Cc1c[nH]c2ccccc12)C(=O)N[C@@H](CCC(N)=O)C(=O)N[C@H](CC(C)C)C(=O)N[C@@H](CC1CCC1)C(=O)NC(C)(C)C(=O)N[C@@H](CO)C(=O)N[C@@H](C)C(=O)N[C@@H](C)C(N)=O)[C@@H](C)O [MP-788] | EPSA | A^2 | 196 |
| CC(=O)N[C@@H](CCCCN=[N+]=[N-])C(=O)NCCC(=O)N[C@@H](CC(C)C)C(=O)N[C@H](C(=O)N[C@@H](Cc1ccccc1)C(=O)N[C@]1(C)CCCCCCC=CCCC[C@@](C)(C(=O)N[C@@H](CO)C(=O)N[C@H](C)C(=O)N[C@@H](C)C(N)=O)NC(=O)[C@H](CC2CCC2)NC(=O)[C@H](CCC(N)=O)NC(=O)[C@H](C)NC(=O)[C@H](Cc2c[nH]c3cc(Cl)ccc23)NC(=O)[C@H](Cc2ccc(O)cc2)NC(=O)[C@H](CCC(=O)O)NC1=O)[C@@H](C)O [MP-494] | EPSA | A^2 | 210 |
| CC(=O)N[C@@H](CCCCN=[N+]=[N-])C(=O)NCCC(=O)NCC(=O)N[C@H](C(=O)N[C@@H](Cc1ccccc1)C(=O)N[C@]1(C)CCCCCCC=CCCC[C@@](C)(C(=O)N[C@@H](CO)C(=O)N[C@@H](C)C(=O)N[C@@H](C)C(N)=O)NC(=O)[C@H](CC2CCC2)NC(=O)[C@H](CCC(N)=O)NC(=O)[C@H](C)NC(=O)[C@H](Cc2c[nH]c3ccccc23)NC(=O)[C@H](Cc2ccc(O)cc2)NC(=O)[C@H](CCC(=O)O)NC1=O)[C@@H](C)O [MP-261] (Ac-[Lys(N3)][βAla]GTF[R8]EYWAQ[Cba][S5]SAA-NH2; staple 6-13) | EPSA | A^2 | 222 |
| CC(C)C[C@@H]1NC(=O)[C@H](C)NC(=O)[C@H](Cc2c[nH]c3ccccc23)NC(=O)[C@H](Cc2ccc(O)cc2)NC(=O)[C@H](CCC(=O)O)NC(=O)[C@](C)(NC(=O)[C@H](Cc2ccccc2)NC(=O)[C@H](CO)NC(=O)[C@@H](NC(=O)[C@H](CO)NC(=O)CNC(=O)[C@@H](N)CCCCN=[N+]=[N-])[C@@H](C)O)CCCCCCC=CCCC[C@@](C)(C(N)=O)NC(=O)[C@H](CC(C)C)NC1=O [MP-0179] | EPSA | A^2 | 230 |
| CC(=O)N[C@@H](CCCCN=[N+]=[N-])C(=O)NCCC(=O)N(C)CC(=O)N[C@H](C(=O)N[C@@H](Cc1ccccc1)C(=O)N[C@]1(C)CCCCCCC=CCCC[C@@](C)(C(=O)N[C@@H](CO)C(=O)N[C@@H](C)C(=O)N[C@@H](C)C(N)=O)NC(=O)[C@H](CC2CCC2)NC(=O)[C@H](CCC(N)=O)NC(=O)[C@H](C)NC(=O)[C@H](Cc2c[nH]c3ccccc23)NC(=O)[C@H](Cc2ccc(O)cc2)NC(=O)[C@H](CCC(=O)O)NC1=O)[C@@H](C)O [MP-799] (Ac-[Lys(N3)][βAla][Sar]TF[R8]EYWAQ[Cba][S5]SAA-NH2; staple 6-13) | EPSA | A^2 | 219 |
| CC(=O)N[C@@H](CCCCN=[N+]=[N-])C(=O)NCCC(=O)N[C@@H](CC(C)C)C(=O)N[C@H](C(=O)N[C@@H](Cc1ccccc1)C(=O)N[C@]1(C)CCCCCCC=CCCC[C@@](C)(C(=O)N[C@@H](CO)C(=O)N[C@@H](C)C(=O)N[C@@H](C)C(N)=O)NC(=O)[C@H](CC2CCC2)NC(=O)[C@H](CCC(N)=O)NC(=O)[C@H](C)NC(=O)[C@H](Cc2c[nH]c3ccccc23)NC(=O)[C@H](Cc2ccc(O)cc2)NC(=O)[C@@H](C)NC1=O)[C@@H](C)O [MP-473] (Ac-[Lys(N3)][βAla]LTF[R8][dA]YWAQ[Cba][S5]SAA-NH2; staple 6-13) | EPSA | A^2 | 213 |
